- Tested on: LPETG (Abz-LPETGK(Dnp)-CONH2)
- assay protocol: In vitro sortase kinetics HPLC assay, LPETG substrate
- Type: biochemical
- condition context: substrate wt (LPETG); 10 mM GGG
- Description: See below for details on sortase expression and purification, and on the synthesis of Abz-LPETGK(Dnp)-CONH2 (SEQ ID NO: 19). […] Reactions were initiated with the addition of enzyme and incubated at 22.5° C. for 3 to 20 minutes before quenching with 0.5 volumes of 1 M HCl. […] Percent conversion was also calculated by using the ratio of the integrated areas of the GK(Dnp)-CONH2 and Abz-LPETGK(Dnp)-CONH2 peptide Abs355 peaks were compared directly (Example 5). […]

molecule: 4S.6A: 5mut + N98D A104V A118S F122A K134G I182V E189V (protein) QAKPQIPKDKSKVAGYIEIPDADIKEPVYPGPATREQLDRGVSFVEENESLDDQNISISGHTAIDRPNYQFTNLGAAKKGSMVYFKVGNETRKYKMTSIRNVKPTAVEVLDEQKGKDKQLTLVTCDDYNVETGVWETRKIFVATEVK
endpoint unit: Hz
kcat, 10 mM GGG (Hz): 1.102

molecule: 4S.6B: 5mut + N98D A104V A118S F122A K134P I182V E189P (protein) QAKPQIPKDKSKVAGYIEIPDADIKEPVYPGPATREQLDRGVSFVEENESLDDQNISISGHTAIDRPNYQFTNLPAAKKGSMVYFKVGNETRKYKMTSIRNVKPTAVEVLDEQKGKDKQLTLVTCDDYNPETGVWETRKIFVATEVK
endpoint unit: Hz
kcat, 10 mM GGG (Hz): 1.081

molecule: eSrtA(4S-4): 5mut + A104V A118T F122S I182V (protein) QAKPQIPKDKSKVAGYIEIPDADIKEPVYPGPATREQLNRGVSFVEENESLDDQNISITGHTSIDRPNYQFTNLKAAKKGSMVYFKVGNETRKYKMTSIRNVKPTAVEVLDEQKGKDKQLTLVTCDDYNEETGVWETRKIFVATEVK
endpoint unit: Hz
kcat, 10 mM GGG (Hz): 0.09571
